# Assay Details: Stability testing of steroids and NSAIDS combined with 0.6% povidone iodine at room temperature
# Condition Label: Day 0, room temperature, 0.6% PVP-I, mean of replicates
Below, each entry is listed alongside its reported % of Std.
The figure you give is taken to be in %; do not add the unit.

Req: Provide only the value of recorded % of Std for CC(=O)OCC(=O)[C@@]1(O)CC[C@H]2[C@@H]3CCC4=CC(=O)CC[C@]4(C)[C@H]3[C@@H](O)C[C@@]21C [Hydrocortisone acetate, hydrocortisone acetate]
Resp: 100.57

Others:
Req: Tell me its % of Std given `CC(=O)[C@@]1(O)CC[C@H]2[C@@H]3C[C@H](C)C4=CC(=O)C=C[C@]4(C)[C@@]3(F)[C@@H](O)C[C@@]21C` as the entry.
Resp: 101.28

Req: Please report % of Std for the following compound: `Nc1c(CC(=O)O)cccc1C(=O)c1ccc(Br)cc1`
Resp: 98.86

Req: Determine from records and report % of Std for `NC(=O)Cc1cccc(C(=O)c2ccccc2)c1N`
Resp: 98.7

Req: Look up and state reported % of Std for CCC(=O)[C@@]1(C)[C@H](C)C[C@H]2[C@@H]3CCC4=CC(=O)C=C[C@]4(C)[C@H]3[C@@H](O)C[C@@]21C [Rimexolone, rimexolone]
Resp: 99.67

Req: Query % of Std for C[C@]12C=CC(=O)C=C1CC[C@@H]1[C@@H]2C(=O)C[C@@]2(C)[C@H]1CC[C@]2(O)C(=O)COP(=O)([O-])[O-].[Na+].[Na+] [Prednisone sodium phosphate, prednisone sodium phosphate]
Resp: 97.76

---

# Assay Details: Stability testing of steroids combined with povidone iodine (PVP-I, 0.4%), HPLC/UV with LC-MS/MS confirmation
# Condition Label: 2 weeks, 40° C., with PVP-I 0.4%
Reported Endpoint: % of Day 0

Known results for molecules:
Req: Input CC(=O)OCC(=O)[C@@]1(O)CC[C@H]2[C@@H]3CCC4=CC(=O)C=C[C@]4(C)[C@H]3[C@@H](O)C[C@@]21C [Prednisolone Acetate] , output reported % of Day 0.
Resp: 96.60%

Req: Indicate its recorded % of Day 0; the molecule in question is CCOC(=O)O[C@]1(C(=O)OCCl)CC[C@H]2[C@@H]3CCC4=CC(=O)C=C[C@]4(C)[C@H]3[C@@H](O)C[C@@]21C [Loteprednol Etabonate]
Resp: 100.07%

Others:
Req: Return % of Day 0 for the following molecule: C[C@@H]1C[C@H]2[C@@H]3CCC4=CC(=O)C=C[C@]4(C)[C@@]3(F)[C@@H](O)C[C@]2(C)[C@@]1(O)C(=O)COP(=O)([O-])[O-].[Na+].[Na+] [Dexamethasone Sodium Phosphate]
Resp: 84.57%

Req: Give % of Day 0 for the following molecule: CCCC(=O)O[C@]1(C(=O)COC(C)=O)CC[C@H]2[C@@H]3C[C@H](F)C4=CC(=O)C=C[C@]4(C)[C@@]3(F)[C@@H](O)C[C@@]21C [Difluprednate]
Resp: 99.30%

---

Listed here are compounds together with their documented % of Day 0.
# Assay Details: Stability testing of steroids and NSAIDS combined with 0.6% povidone iodine at room temperature
# Condition Label: four weeks control, spiked 50 μL of H2O, room temperature without PVP-I
# Experimental: Steroids and NSAIDS were mixed with PVP-I at the concentration of 0.6% w/w on Day 1. […] The testing samples were analyzed using liquid chromatography and tandem mass spectrometry (LC/MS/MS) methods at Day 0, and Week 4. The steroids and NSAIDS standards were also analyzed and steroids and NSAIDS levels in testing samples were determined. […]
Answer in %, number only, no unit symbol.

Req: Let me know recorded % of Day 0 for `CC(=O)[C@@]1(O)CC[C@H]2[C@@H]3C[C@H](C)C4=CC(=O)C=C[C@]4(C)[C@@]3(F)[C@@H](O)C[C@@]21C` , thanks.
Resp: 97.97

Req: Consider the compound C[C@]12C=CC(=O)C=C1CC[C@@H]1[C@@H]2C(=O)C[C@@]2(C)[C@H]1CC[C@]2(O)C(=O)COP(=O)([O-])[O-].[Na+].[Na+] [Prednisone sodium phosphate, prednisone sodium phosphate] . State its measured % of Day 0.
Resp: 102.87

Req: Specify reported % of Day 0 for the compound shown: CCC(=O)[C@@]1(C)[C@H](C)C[C@H]2[C@@H]3CCC4=CC(=O)C=C[C@]4(C)[C@H]3[C@@H](O)C[C@@]21C [Rimexolone, rimexolone]
Resp: 97.41

Req: Specify % of Day 0 for `Nc1c(CC(=O)O)cccc1C(=O)c1ccc(Br)cc1` and stop.
Resp: 101.19

Req: Assign % of Day 0 to the following record: `NC(=O)Cc1cccc(C(=O)c2ccccc2)c1N`
Resp: 100.06

Pending compound:
Req: Read off the recorded % of Day 0 for CC(=O)OCC(=O)[C@@]1(O)CC[C@H]2[C@@H]3CCC4=CC(=O)CC[C@]4(C)[C@H]3[C@@H](O)C[C@@]21C [Hydrocortisone acetate, hydrocortisone acetate]
Resp: 101.08
